# System: HS 578T breast
# MEASUREMENT PROTOCOL: NCI-60 one-dose screen, 48 h (100 = growth as untreated, 0 = no growth, -100 = all killed)
# EXPERIMENTAL SETUP: 10 µM unless noted
The panel holds about 83,000 compounds, 20% with a hit somewhere; the sample as a whole holds those more often. Calls of active or inactive are those of the source. The calls were made as follows: active = growth percent below 10; inactive = the rest.
METRIC NAME: growth

Exercise: Tell me the measured growth of Cc1ccc(NC(=S)N/C=C(\c2ccccc2)S(=O)Cc2ccccc2)c(C)c1 (configuration not stated) , please.
Key: 94.8% (inactive)

Exercise: Tell me the measured growth of CCOP(C)(=O)/C(Cc1ccc(OC)c(OC)c1)=N\O (configuration not stated) , please.
Key: 94.9% (inactive)

Exercise: Tell me the measured growth of O=c1[nH]c(=O)c2[nH]c(=O)[nH]c2[nH]1 , please.
Key: 102% (inactive)

Exercise: Tell me the measured growth of O=[N+]([O-])c1ccc(N/N=C/C2CCCCCC2)c([N+](=O)[O-])c1 , please.
Key: 96.9% (inactive)

Exercise: Tell me the measured growth of NC(=O)Cc1nc(O)cc(=O)[nH]1 , please.
Key: 91.9% (inactive)

Exercise: Tell me the measured growth of O=C(O)COc1ccccc1F , please.
Key: 101% (inactive)

Exercise: Tell me the measured growth of N#Cc1c(N)nc2c(c(-c3ccc(Cl)cc3)nn2-c2ccccc2)c1C#N , please.
Key: 83.9% [100 µM] (inactive)

Exercise: Tell me the measured growth of CC(=O)/C(N=Nc1ccc(S(=O)(=O)c2ccc(N=N/C(C(C)=O)=C(/C)O)cc2)cc1)=C(\C)O , please.
Key: 109% (inactive)

Exercise: Tell me the measured growth of O=[N+]([O-])c1cccc(N=Cc2ccccc2)c1 , please.
Key: 110% (inactive)

Exercise: Tell me the measured growth of CC(O)CCNC(c1ccccc1)C(O)c1ccccc1 (configuration not stated) , please.
Key: 110% (inactive)

Exercise: Tell me the measured growth of OCCS , please.
Key: 106% (inactive)

Exercise: Tell me the measured growth of CCOC(=N)c1ccc(C(=N)OCC)cc1 , please.
Key: 96.8% (inactive)

----------
# Test system: T-47D breast
# MEASUREMENT PROTOCOL: NCI-60 one-dose screen, 48 h (100 = growth as untreated, 0 = no growth, -100 = all killed)
# EXPERIMENTAL SETUP: 10 µM unless noted
# Experimental: Growth inhibition of the T-47D human tumor cell line is measured as a screen for anti-cancer activity. Cells are grown in 96 well plates and exposed to the test compound for 48 hours. Compounds are tested at a single concentration, which is 10^-5 M for most compounds. The reported endpoint is percent growth (GI% or GIPRCNT), where numbers from 0 - 100% represent growth inhibition, and numbers from -100% - 0 represent cell death. For example, a value of 40 represents 60% growth inhibition. […]
About 83,000 compounds went through this panel and 20% of them were active in at least one assay; those are over-represented in the sample as a whole. Calls of active or inactive are those of the source. The calls were made as follows: active = growth percent below 10; inactive = the rest.
Provide the reported growth of each item.

Exercise: Tell me the measured growth of O=C(NC(=O)c1ccc(F)c(Cl)c1)NC1CC1 , please.
Key: 91.8% (inactive)

Exercise: Tell me the measured growth of Cc1cc(-c2ccc(N=Nc3c(C)nn(-c4ccc(S(=O)(=O)O)cc4)c3O)c(C)c2)ccc1N=Nc1ccc(O)c(C(=O)O)c1 , please.
Key: 99.7% (inactive)

Exercise: Tell me the measured growth of CC1OS(=O)OC1C (stereo not drawn) , please.
Key: 93% (inactive)

Exercise: Tell me the measured growth of O=C1c2ccccc2C(c2ccccc2)C1c1ccccc1 (stereo not drawn) , please.
Key: 82.9% (inactive)

Exercise: Tell me the measured growth of O=C(N=C1C(=O)C2(CCCCC2)C2(N=C(c3ccccc3)OC2=O)C12CCCCC2)c1ccccc1 (stereo not drawn) , please.
Key: 35.7% (inactive)

Exercise: Tell me the measured growth of O=P(O)(O)OC1C(OP(=O)(O)O)C(OP(=O)(O)O)C(OP(=O)(O)O)C(OP(=O)(O)O)C1OP(=O)(O)O.[Cu+2] (stereo not drawn) , please.
Key: 101% (inactive)

Exercise: Tell me the measured growth of COC(=O)c1nc(=S)[nH]c(C(=O)OC)c1C(=O)c1ccccc1 , please.
Key: 107% (inactive)

Exercise: Tell me the measured growth of O=S(=O)(O)c1ccc2cc(O)ccc2c1 , please.
Key: 102% (inactive)

Exercise: Tell me the measured growth of COC(=O)C(Cc1cn(C(C)=O)c2ccccc12)P(=O)(OC)OC (stereo not drawn) , please.
Key: 105% (inactive)

Exercise: Tell me the measured growth of CCCCC/C(C)=N\NC(N)=S , please.
Key: 33.6% (inactive)

Exercise: Tell me the measured growth of Nc1c(Cl)cc2c(c1Br)C(=O)c1ccccc1C2=O , please.
Key: 76% (inactive)

Exercise: Tell me the measured growth of Nc1ccccc1SC1CC(=O)N(c2ccc(I)cc2)C1=O (stereo not drawn) , please.
Key: 82.3% (inactive)

Exercise: Tell me the measured growth of O=[N+]([O-])c1cccc(N=Cc2ccccc2)c1 , please.
Key: 103% (inactive)

Exercise: Tell me the measured growth of NC(=O)Cc1nc(O)cc(=O)[nH]1 , please.
Key: 88.5% (inactive)

Exercise: Tell me the measured growth of O=C(c1ccccc1)C1(Br)CCCCC1 , please.
Key: 94.7% (inactive)

Exercise: Tell me the measured growth of CCOCCC(=O)O , please.
Key: 94.1% (inactive)

Exercise: Tell me the measured growth of O=C(O)Cc1cc(=O)[nH]n(-c2ccccc2)c1=O , please.
Key: 98.2% (inactive)

Exercise: Tell me the measured growth of O=C(O)c1ccc2c3ccc(C(=O)O)c4c(C(=O)O)ccc(c5ccc(C(=O)O)c1c25)c43 , please.
Key: 97.2% (inactive)

Exercise: Tell me the measured growth of CCOC(=O)CN1CCC(C(=O)OCC)CC1 , please.
Key: 102% (inactive)

Exercise: Tell me the measured growth of O=[N+]([O-])c1ccc(NC2CCCCC2)nc1 , please.
Key: 102% (inactive)

Exercise: Tell me the measured growth of O=[N+]([O-])c1ccc(N2CCN=N2)cc1 , please.
Key: 67.3% (inactive)

Exercise: Tell me the measured growth of O=C(c1ccc(Cl)cc1)C1C(c2ccccc2)C1[N+](=O)[O-] (stereo not drawn) , please.
Key: 89.3% (inactive)

Exercise: Tell me the measured growth of O=COCCCc1ccccc1 , please.
Key: 92.7% (inactive)

Exercise: Tell me the measured growth of Nc1nc(-c2ccccn2)cc(-c2cc(-c3ccccn3)nc(N)n2)n1 , please.
Key: 109% (inactive)

Exercise: Tell me the measured growth of O=C1c2cccnc2-c2ncccc21 , please.
Key: 98.9% [100 µM] (inactive)

Exercise: Tell me the measured growth of CC(C)=NOC(C)C(=O)O (stereo not drawn) , please.
Key: 107% (inactive)

Exercise: Tell me the measured growth of CCn1c2ccc(N(C)C)cc2c2cc(N(C)C)ccc21 , please.
Key: 88.2% (inactive)

Exercise: Tell me the measured growth of CCNCc1ccccc1 , please.
Key: 98.3% (inactive)

Exercise: Tell me the measured growth of Cc1cc2ccccc2c2cc3ccccc3cc12 , please.
Key: 48% (inactive)

Exercise: Tell me the measured growth of Cc1c(Cl)c(C)c(Cc2c(C)c(Cl)c(C)c(Cl)c2O)c(O)c1Cl , please.
Key: 1.53% (active)

Exercise: Tell me the measured growth of COc1cc(C2c3cc4c(cc3C(OC(=O)C[n+]3ccccc3)C3COC(=O)C23)OCO4)cc(OC)c1OC (stereo not drawn) , please.
Key: 94.8% (inactive)

Exercise: Tell me the measured growth of CC(C)(C)C1CCC(=NO)CC1 (stereo not drawn) , please.
Key: 96.6% (inactive)

Exercise: Tell me the measured growth of Cc1cc(=NO)cc(C)n1O , please.
Key: 94.4% (inactive)

Exercise: Tell me the measured growth of CCOC(C)=N , please.
Key: 103% (inactive)

Exercise: Tell me the measured growth of NNc1ncnc2cccc(Cl)c12 , please.
Key: 90.6% (inactive)

Exercise: Tell me the measured growth of C#CCOC(=O)C(N)CS (stereo not drawn) , please.
Key: 119% (inactive)

Exercise: Tell me the measured growth of COc1cc(NCCCCCCCNC(C)C)c2nccc(C)c2c1 , please.
Key: 59.9% (inactive)

Exercise: Tell me the measured growth of COC(=O)c1cc(C(=O)OC)cc([N+](=O)[O-])c1 , please.
Key: 111% (inactive)

Exercise: Tell me the measured growth of CC(C)(C)OC(=O)NCCc1ccc(N)cc1 , please.
Key: 94.8% (inactive)

Exercise: Tell me the measured growth of C/C=C/C(=O)OCCCCCCCCCCCC , please.
Key: 90.8% (inactive)

Exercise: Tell me the measured growth of O=C1C=CC(n2cc(F)c(=O)[nH]c2=O)O1 (stereo not drawn) , please.
Key: 65.5% (inactive)

Exercise: Tell me the measured growth of Cc1ccc(S(=O)(=O)n2ccnc2)cc1 , please.
Key: 96.8% (inactive)

Exercise: Tell me the measured growth of CCOC(=O)c1ccc(N2C(=O)C(Cl)(c3ccccc3)C2c2ccco2)cc1 (stereo not drawn) , please.
Key: 30.4% (inactive)

Exercise: Tell me the measured growth of N#CC(=S)Nc1ccc(Cl)c(Cl)c1 , please.
Key: 13.2% (inactive)

Exercise: Tell me the measured growth of CN(C)C(=S)N(C)C , please.
Key: 98.5% (inactive)

Exercise: Tell me the measured growth of CC(O)CCNC(c1ccccc1)C(O)c1ccccc1 (stereo not drawn) , please.
Key: 99.2% (inactive)

Exercise: Tell me the measured growth of Clc1ccc2sc(-c3ccccc3)nc2c1 , please.
Key: 56.8% (inactive)

Exercise: Tell me the measured growth of O=C1C2=C(Nc3cc(Cl)ccc3N2)OC1c1c[nH]c2ccc(COc3ccccc3)cc12 (stereo not drawn) , please.
Key: 68.4% (inactive)

Exercise: Tell me the measured growth of CCOc1ccc(/C=C\C(=O)O)cc1 , please.
Key: 122% (inactive)

Exercise: Tell me the measured growth of CCC(C)NC(=O)c1ccccc1C (stereo not drawn) , please.
Key: 94.3% (inactive)

Exercise: Tell me the measured growth of COc1ccc(CCO)cc1 , please.
Key: 101% (inactive)

Exercise: Tell me the measured growth of CC1=CC(=O)c2cccc(NC3=NCCO3)c21 , please.
Key: 90.3% (inactive)

Exercise: Tell me the measured growth of CC(=O)c1cccc(OC(=O)c2ccccc2)c1 , please.
Key: 102% (inactive)
